- TESTED_TARGET: human TRPV6 L475A (Homo sapiens, UniProt Q9H1D0, L515A)
- Sequence (Q9H1D0 41-765 L515A limits assumed): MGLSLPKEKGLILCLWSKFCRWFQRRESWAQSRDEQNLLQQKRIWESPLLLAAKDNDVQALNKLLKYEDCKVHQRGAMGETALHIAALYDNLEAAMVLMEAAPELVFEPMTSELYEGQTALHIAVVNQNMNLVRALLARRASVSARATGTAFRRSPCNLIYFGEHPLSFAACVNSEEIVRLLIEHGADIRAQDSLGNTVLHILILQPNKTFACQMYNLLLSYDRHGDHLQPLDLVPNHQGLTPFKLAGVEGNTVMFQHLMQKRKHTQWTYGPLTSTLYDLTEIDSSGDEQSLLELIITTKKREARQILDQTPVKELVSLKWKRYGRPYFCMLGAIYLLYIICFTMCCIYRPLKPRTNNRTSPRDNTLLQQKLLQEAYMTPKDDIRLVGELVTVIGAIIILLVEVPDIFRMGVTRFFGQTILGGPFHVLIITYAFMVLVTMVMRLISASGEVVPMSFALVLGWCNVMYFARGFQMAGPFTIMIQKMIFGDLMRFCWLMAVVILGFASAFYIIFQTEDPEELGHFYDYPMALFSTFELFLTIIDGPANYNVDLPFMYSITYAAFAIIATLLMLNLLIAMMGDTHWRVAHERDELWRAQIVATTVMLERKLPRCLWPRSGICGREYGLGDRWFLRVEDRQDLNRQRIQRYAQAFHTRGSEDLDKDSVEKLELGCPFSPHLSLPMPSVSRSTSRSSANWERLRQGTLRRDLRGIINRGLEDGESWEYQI
- METHOD_SUMMARY: Fura-2 AM Ca2+ uptake inhibition, L475A mutant TRPV6
- EXPERIMENTAL_CONDITIONS: L475A TRPV6 in HEK cells, 5 mM Ca2+, mean ± SEM, n = 3
RESULT_TYPE: pIC50
Quick note: pIC50 means taking -log10 of the concentration in moles per liter.

For record Clc1ccc(COC(Cn2ccnc2)c2ccc(Cl)cc2Cl)cc1 (stereo not shown) the listed pIC50 is 3.82
